target or test system: DfrA1 (Escherichia coli)
Construct: dfrA1 gene (UniProtKB:A4GRC7) were synthesized and cloned in pET-41a (+) vector; made in house; host or cells: E. coli BL21(DE3)
Sequence (P00382 whole entry): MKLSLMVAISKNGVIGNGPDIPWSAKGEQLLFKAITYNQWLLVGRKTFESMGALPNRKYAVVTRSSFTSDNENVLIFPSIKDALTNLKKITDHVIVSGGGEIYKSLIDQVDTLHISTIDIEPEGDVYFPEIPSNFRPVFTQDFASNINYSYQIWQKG
assay remarks: biochemical
Type: binding, E. coli
measurement setup: Kd, DfrA1 preincubated with 100 µM UCP1228, titrant NADPH (Fig. S8)
measure name: Kd (nM)
# number only, unit nM dropped from output

Fill blank: measured Kd of the compound "NC(=O)C1=CN([C@@H]2O[C@H](COP(=O)(O)OP(=O)(O)OC[C@H]3O[C@@H](n4cnc5c(N)ncnc54)[C@H](OP(=O)(O)O)[C@@H]3O)[C@@H](O)[C@H]2O)C=CC1" is ____.
290
